Measured values drawn from ChEMBL document CHEMBL5154808 for this set.

# Tested on: Bacillus subtilis
# Assay Name: Antimicrobial activity against Bacillus subtilis ATCC 23857 assessed as reduction of bacterial growth incubated for 18 hrs by CLSI protocol based broth microdilution method
# Type: functional
Where a SMILES comes first, the peptide text is derived from it. Bridges are numbered along the chain shown (N, C = ends). [ ]: non-standard residue; d: D form. The star is where a group is joined. X1 = CC[C@H](C)CCCCC(=O)*; Dab = NCC[C@H](N)C(=O)O
Measurement Kind: MIC (µM)
Give bare numbers, in µM.

Worked examples, 2 compounds total:
[[record]]
compound = "CC[C@H](C)[C@H](N)C(=O)N[C@@H](CCCNC(=N)N)C(=O)N[C@H](C(=O)N[C@@H](CCCNC(=N)N)C(=O)N[C@@H](CS)C(=O)N[C@@H](CCCNC(=N)N)C(=O)N[C@@H](CCCNC(=N)N)C(=O)N[C@@H](CCCNC(=N)N)C(=O)N[C@@H](Cc1ccccc1)C(=O)N[C@@H](CS)C(=O)N[C@@H](CCCNC(=N)N)C(=O)N[C@H](C(=O)N[C@@H](CCCNC(=N)N)C(=O)N[C@H](C(N)=O)[C@@H](C)CC)[C@@H](C)CC)[C@@H](C)CC (H-IRIRCRRRFCRIRI-NH2)"
measured = 4

[[record]]
compound = "CC(C)C[C@H](NC(=O)[C@H](CCCNC(=N)N)NC(=O)CNC(=O)CNC(=O)[C@@H](N)CCCNC(=N)N)C(=O)N[C@@H](CS)C(=O)N[C@@H](Cc1ccc(O)cc1)C(=O)N[C@@H](CS)C(=O)N[C@@H](CCCNC(=N)N)C(=O)N[C@@H](CCCNC(=N)N)C(=O)N[C@@H](CCCNC(=N)N)C(=O)N[C@@H](Cc1ccccc1)C(=O)N[C@@H](CS)C(=O)N[C@H](C(=O)N[C@@H](CS)C(=O)N[C@H](C(=O)NCC(=O)N[C@@H](CCCNC(=N)N)C(N)=O)C(C)C)C(C)C (H-RGGRLCYCRRRFCVCVGR-NH2)"
measured = 2


compound CC[C@H](C)CCCCC(=O)N[C@@H](CCN)C(=O)N[C@H](C(=O)N[C@@H](CCN)C(=O)N[C@H]1CCNC(=O)[C@H]([C@@H](C)O)NC(=O)[C@H](CCN)NC(=O)[C@H](CCN)NC(=O)[C@H](CC(C)C)NC(=O)[C@@H](Cc2ccccc2)NC(=O)[C@H](CCN)NC1=O)[C@@H](C)O (X1-[Dab]T[Dab][Dab][Dab][dF]L[Dab][Dab]T; lactam 4-C) , MIC observed: 4
